- System: Rattus norvegicus
- test protocol: AUC (0 to infinity) in Wistar rat at 24.8 mg/kg, po by LC-MS-MS analysis
- Assay type: ADME, organism-based, Plasma
- Design: time infinity, dose 24.8 mg/kg, route oral
- recorded conditions: in vivo
reported endpoint: AUC (µM·h)

smiles entry: C#C[C@@]1(O)[C@H](O)[C@@H](CO)O[C@H]1n1cc(C(N)=O)c2c(N)ncnc21
result value: 3.15

* * *

- System: Mus musculus
- test protocol: Cmax in CD-1 mouse assessed as NITD449 level at 24.2 mg/kg, po by LC-MS-MS analysis
- Type: ADME, organism-based
- Parameters: dose 24.2 mg/kg, route oral
- recorded conditions: in vivo

smiles entry: C#C[C@@]1(O)[C@H](OC(=O)C(C)C)[C@@H](COC(=O)C(C)C)O[C@H]1n1cc(C(N)=O)c2c(N)ncnc21
Cmax: 6.01 µM

* * *

- test protocol: Clearance in CD-1 mouse at 5 mg/kg, iv by LC-MS-MS analysis
- Assay type: ADME, organism-based
- Design: dose 5 mg/kg, route intravenous
- recorded conditions: in vivo

smiles entry: C#C[C@@]1(O)[C@H](O)[C@@H](CO)O[C@H]1n1cc(C(N)=O)c2c(N)ncnc21
units symbol: mL/min/kg
clearance: 21.9

* * *

- Test system: Rattus norvegicus
- test protocol: AUC (0 to infinity) in Wistar rat assessed as NITD449 level at 26.5 mg/kg, po by LC-MS-MS analysis
- Assay type: ADME, organism-based, Plasma
- Design: time infinity, dose 26.5 mg/kg, route oral
- recorded conditions: in vivo
reported endpoint: AUC (µM·h)

smiles entry: C#C[C@@]1(O)[C@H](OC(=O)C(C)C)[C@@H](COC(=O)C(C)C)O[C@H]1n1cc(C(N)=O)c2c(N)ncnc21
result value: 13.7
